Assay remarks: Quantitative High-Throughput drug screen in 47 multiple myeloma cell lines against the NCATS MIPE library collection: H1112_PLB cell viability assay (AID 1918967; note: nearly all actives have a fitted effect of over 30% in size; note: potency is the fitted concentration of half-maximal effect)
Test parameters: H1112 myeloma cells viability, ATP luminescence, 48 h; series mostly up to 45.8 µM
Source text: PI: Beverly A. Mock Ph.D. Laboratory of Cancer Biology and Genetics, Center for Cancer Research, National Cancer Institute, National Institute of Health, Bethesda, Maryland […] 5; Detector; 425V; Luminescence; Viewlux PerkinElmer. […] 1. […] Briefly, the corresponding myeloma cell lines were screened in 1,536-well plates with 500 cells, 5-uL per well for inhibition of cell viability (assessed by measuring ATP levels with CellTiterGlo). […]
Results filed as inconclusive are left out. Active and inactive are the calls of the source. Calls come from the whole dose curve; as a rule, active = well fitted cell-killing curve with a large enough effect; inconclusive = small, poorly fitted or top-dose-only effect, or effect the other way; inactive = no such curve, though single readings can be large or run the other way.
Readout kind: Potency

Study these solved cases before continuing.
>  <Molecule>
NC(=O)N1CCC(CC(=O)N2CCC([C@H]3c4ncc(Br)cc4CCc4cc(Cl)cc(Br)c43)CC2)CC1

>  <Obs value>
10500 nM (active)

$$$$
>  <Molecule>
NC(=O)c1ncn([C@@H]2O[C@H](CO)[C@@H](O)[C@@H]2O)c1N

>  <Obs value>
inactive

$$$$
>  <Molecule>
CCCCCCCCCCCCCCCC(=O)OC[C@@H](NC(=O)C(Cl)Cl)[C@H](O)c1ccc([N+](=O)[O-])cc1

>  <Obs value>
inactive

$$$$
>  <Molecule>
Cc1cnn(C)c1C(=O)Nc1cc(Nc2ccc3c(C=Cc4ccccn4)n[nH]c3c2)ccc1F

>  <Obs value>
8330 nM (active)

$$$$
>  <Molecule>
C[C@H]1[C@@H](OC(=O)CCC(=O)O)O[C@@H]2O[C@@]3(C)CC[C@@H]4[C@H](C)CC[C@@H]1[C@@]24OO3

>  <Obs value>
16600 nM (active)

$$$$
>  <Molecule>
COC(=O)[C@H](CCCN=C(N)N)NS(=O)(=O)c1ccc(C)cc1

>  <Obs value>
inactive

$$$$
>  <Molecule>
O=C1c2c(O)cccc2[C@@H]([C@@H]2O[C@H](CO)[C@@H](O)[C@H](O)[C@H]2O)c2cc(CO)cc(O)c21

>  <Obs value>
inactive

$$$$
>  <Molecule>
COC(=O)C1C2CC3c4[nH]c5cc(OC)ccc5c4CCN3CC2CC(OC(=O)c2cc(OC)c(OC)c(OC)c2)C1OC (centres undefined)

>  <Obs value>
16600 nM (active)

$$$$
>  <Molecule>
Cc1cc(Nc2ncc3c(n2)N(C)C(=O)N(c2cc(NC(=O)c4cccc(C(F)(F)F)c4)ccc2C)C3)n(C)n1

>  <Obs value>
2640 nM (active)

$$$$
>  <Molecule>
COc1cc2c(cc1OC)[C@@H]1C(=O)c3ccc4c(c3O[C@@H]1CO2)C=CC(C)(C)O4

>  <Obs value>
29.6 nM (active)

$$$$

Q: Param item = c1coc(CNc2ncnc3nc[nH]c23)c1 ; retrieve measured Potency.
Result: inactive

Q: Param item = CC1(C)O[C@@H]2C[C@H]3[C@@H]4CCC5=CC(=O)C=C[C@]5(C)[C@@H]4[C@@H](O)C[C@]3(C)[C@]2(C(=O)CO)O1 ; retrieve measured Potency.
Result: inactive

Q: Param item = CC(C)(O)[C@H]1CC[C@@](C)([C@H]2[C@@H](O)C[C@@]3(C)[C@@H]4C[C@H](O[C@@H]5O[C@H](CO)[C@@H](O)[C@H](O)[C@@H]5O)[C@H]5C(C)(C)[C@@H](O[C@@H]6OC[C@@H](O)[C@H](O)[C@@H]6O)CC[C@@]56C[C@@]46CC[C@]23C)O1 ; retrieve measured Potency.
Result: inactive

Q: Param item = CNC(=O)c1ccc(Nc2cc(Nc3ccccc3S(=O)(=O)C(C)C)c3cc[nH]c3n2)nc1 ; retrieve measured Potency.
Result: 4180 nM (active)

Q: Param item = CN(C)c1ccc(C(=O)NCCCCCCC(=O)NO)cc1 ; retrieve measured Potency.
Result: 1870 nM (active)

Q: Param item = CN[C@H](CC(C)C)C(=O)N[C@H]1C(=O)N[C@@H](CC(N)=O)C(=O)N[C@@H]2C(=O)N[C@H]3C(=O)N[C@H](C(=O)N[C@H](C(=O)O)c4cc(O)cc(O)c4-c4cc3ccc4O)[C@H](O)c3ccc(c(Cl)c3)Oc3cc2cc(c3O[C@@H]2O[C@H](CO)[C@@H](O)[C@H](O)[C@@H]2O[C@H]2C[C@](C)(N)[C@H](O)[C@H](C)O2)Oc2ccc(cc2Cl)[C@H]1O ; retrieve measured Potency.
Result: inactive

Q: Param item = CC[C@]12C=CCN3CC[C@@]4(c5cc([C@@]6(C(=O)OC)C[C@H]7C[C@@H](C(C)(F)F)CN(Cc8c6[nH]c6ccccc86)C7)c(OC)cc5N(C)[C@H]4[C@@](O)(C(=O)OC)[C@H]1OC(C)=O)[C@@H]32 ; retrieve measured Potency.
Result: 37.2 nM (active)

Q: Param item = CCCCOc1ccc(C(=O)Nc2ccc(F)cc2F)cc1 ; retrieve measured Potency.
Result: inactive

Q: Param item = CCCCCCCCc1ccc(CCC(N)(CO)CO)cc1 ; retrieve measured Potency.
Result: 18700 nM (active)

Q: Param item = CS[C@H]1SC[C@@H]2C(=O)N(C)[C@H](C(C)C)C(=O)OC[C@H](NC(=O)c3cnc4ccccc4n3)C(=O)N[C@H](C)C(=O)N(C)[C@@H]1C(=O)N(C)[C@H](C(C)C)C(=O)OC[C@H](NC(=O)c1cnc3ccccc3n1)C(=O)N[C@H](C)C(=O)N2C ; retrieve measured Potency.
Result: 11.8 nM (active)

Q: Param item = C[C@H](NCc1ccc2c(c1)nc(NC(=O)c1ccc(-c3cn[nH]c3)s1)n2CCc1ccccc1)C(C)(C)C ; retrieve measured Potency.
Result: 1660 nM (active)

Q: Param item = C=CC(=O)Nc1ccc2ncnc(Nc3ccc(OCc4cccc(F)c4)c(Cl)c3)c2c1 ; retrieve measured Potency.
Result: 1050 nM (active)

Q: Param item = C#C[C@]1(O)CC[C@@H]2[C@@H]3CCC4=CC(=O)CC[C@@H]4[C@H]3CC[C@@]21CC ; retrieve measured Potency.
Result: inactive

Q: Param item = CON=C(C(=O)N[C@@H]1C(=O)N2C(C(=O)O)=C(Cn3ccc(=N)n3CCO)CS[C@H]12)c1csc(N)n1 ; retrieve measured Potency.
Result: inactive

Q: Param item = CC(=O)OC[C@@H]1O[C@@H](n2ccc(=O)[nH]c2=O)[C@H](OC(C)=O)[C@H]1OC(C)=O ; retrieve measured Potency.
Result: inactive

Q: Param item = C[C@@]12C[C@@]3(O)O[C@@H](O1)[C@]1(COC(=O)c4ccccc4)[C@@H]3C[C@@]12O[C@@H]1O[C@H](CO)[C@@H](O)[C@H](O)[C@@H]1O ; retrieve measured Potency.
Result: inactive

Q: Param item = CC(C=CC(=O)NO)=C[C@@H](C)C(=O)c1ccc(N(C)C)cc1 ; retrieve measured Potency.
Result: 372 nM (active)

Q: Param item = CC(=O)N[C@H]1[C@@H]([C@H](O)[C@H](O)CO)OC(C(=O)O)=C[C@@H]1N=C(N)N ; retrieve measured Potency.
Result: inactive

Q: Param item = COc1cc(O)c2c(c1)C1OC1C[C@H](O)[C@H](O)C(=O)C=CC[C@H](C)OC2=O (some centres undefined) ; retrieve measured Potency.
Result: 5260 nM (active)
